Values compiled from paper PMC10892093.

# Test system: human liver microsomes (HLM)
# test_description: Inhibition of R- and S-oxazepam glucuronidation in human liver microsomes
# measurement_parameters: read-out: IC50, R-Oxazepam Glucuronide
# Experimental: A Waters Corp BEH C18 Acquity UPLC column (1.7 µM, 2.1 × 100 mm) was used at a constant temperature of 40 °C for chromatographic separation. […] Determination of IC50 and Ki Values. […] The nonspecific binding constants (fu,inc) for cannabinoids in HEK293 microsomes, HLM, and HKM were previously determined and used to calculate the inhibition by unbound (‘free’) cannabinoid in each reaction. […]
endpoint_label: IC50 (µM)
Express your answer in µM, writing the number without its unit.

In: State its IC50: CCCCCc1cc(O)c2c(c1)OC(C)(C)[C@@H]1CCC(C)=C[C@@H]21 [THC, Δ^9-tetrahydrocannabinol]
Out: 34

---

Reported pIC50 is given for each of the following compounds.
# target_of_assay: UGT1A9 (Homo sapiens, UniProt O60656)
# Construct: expressed in transfected cells; microsomal fraction
# Sequence (O60656 26-530): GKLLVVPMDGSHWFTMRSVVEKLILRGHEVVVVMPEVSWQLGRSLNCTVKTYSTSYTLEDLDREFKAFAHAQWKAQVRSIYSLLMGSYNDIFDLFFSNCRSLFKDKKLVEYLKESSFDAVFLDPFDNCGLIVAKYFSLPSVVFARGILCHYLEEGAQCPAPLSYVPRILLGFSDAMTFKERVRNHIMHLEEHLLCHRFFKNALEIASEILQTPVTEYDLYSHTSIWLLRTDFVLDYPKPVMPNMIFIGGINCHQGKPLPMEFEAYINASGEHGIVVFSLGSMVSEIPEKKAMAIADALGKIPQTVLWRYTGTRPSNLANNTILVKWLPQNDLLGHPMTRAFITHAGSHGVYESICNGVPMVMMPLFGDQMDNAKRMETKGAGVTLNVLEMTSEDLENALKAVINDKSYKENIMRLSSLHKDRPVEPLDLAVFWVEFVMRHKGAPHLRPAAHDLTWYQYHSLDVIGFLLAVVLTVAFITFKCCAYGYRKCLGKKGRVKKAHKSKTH
# test_description: Inhibition of R-oxazepam glucuronidation in rUGT1A9 microsomes (UGT-overexpressing HEK293)
# Assay type: biochemical
# measurement_parameters: rUGT1A9; IC50 corrected with fu,inc; read-out: IC50,u, R-Oxazepam Glucuronide
Bear in mind: pIC50 is minus log10 of a mol/L concentration; give just that figure.

# compound, measured_number
data = [
    ("CCCCCc1cc(O)c2c(c1)OC(C)(C)[C@@H]1CCC(C)=C[C@@H]21 [THC, Δ^9-tetrahydrocannabinol]", 6.30),
]

# context switch: different compound, same pIC50
In: State its pIC50: "C=C(C)[C@@H]1CCC(C)=C[C@H]1c1c(O)cc(CCCCC)cc1O"
Out: 7.28

---

# System: human kidney microsomes (HKM)
# test_description: Inhibition of R- and S-oxazepam glucuronidation in human kidney microsomes
# measurement_parameters: read-out: IC50, R-Oxazepam Glucuronide
endpoint_label: IC50 (µM)
Express your answer in µM, writing the number without its unit.

In: State its IC50: CCCCCc1cc(O)c2c(c1)OC(C)(C)[C@@H]1CCC(C)=C[C@@H]21 [THC, Δ^9-tetrahydrocannabinol]
Out: 94

---

# target_of_assay: UGT2B15 (Homo sapiens)
# Construct: expressed in transfected cells; cell homogenate
# Sequence (P54855 24-530): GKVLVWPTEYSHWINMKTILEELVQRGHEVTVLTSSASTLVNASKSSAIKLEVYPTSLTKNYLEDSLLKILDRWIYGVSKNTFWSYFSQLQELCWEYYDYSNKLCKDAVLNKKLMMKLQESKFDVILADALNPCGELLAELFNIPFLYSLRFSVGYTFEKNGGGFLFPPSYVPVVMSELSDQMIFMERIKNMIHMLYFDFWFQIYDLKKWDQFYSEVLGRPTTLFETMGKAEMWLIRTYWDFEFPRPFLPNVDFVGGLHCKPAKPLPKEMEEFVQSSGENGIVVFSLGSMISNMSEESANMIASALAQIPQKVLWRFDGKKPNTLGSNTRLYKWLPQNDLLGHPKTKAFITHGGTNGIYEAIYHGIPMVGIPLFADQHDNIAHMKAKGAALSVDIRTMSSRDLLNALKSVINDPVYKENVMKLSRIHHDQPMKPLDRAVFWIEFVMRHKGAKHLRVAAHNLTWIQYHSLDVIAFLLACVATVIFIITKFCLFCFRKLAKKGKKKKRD
# test_description: Inhibition of S-oxazepam glucuronidation in rUGT2B15 homogenate/microsomes (UGT-overexpressing HEK293)
# Format: biochemical
# measurement_parameters: rUGT2B15; read-out: IC50, S-Oxazepam Glucuronide
Reported pIC50 is given for each of the following molecules.
Bear in mind: pIC50 is minus log10 of a mol/L concentration; give just that figure.

# molecule, pIC50
records = [
    ("CCCCCc1cc(O)c2c(c1)OC(C)(C)[C@@H]1CCC(C)=C[C@@H]21 [THC, Δ^9-tetrahydrocannabinol]", 4.70),
]

In: State its pIC50: "C=C(C)[C@@H]1CCC(C)=C[C@H]1c1c(O)cc(CCCCC)cc1O"
Out: 4.27

---

# Tested on: human kidney microsomes (HKM)
# test_description: Inhibition of R- and S-oxazepam glucuronidation in human kidney microsomes
# measurement_parameters: read-out: IC50, oxazepam glucuronidation (marginal or no inhibition)
pIC50: −log10 of the molar value.
endpoint_label: pIC50

In: State its pIC50: CCCCCc1cc(O)c2c(c1)OC(C)(C)[C@@H]1CCC(C(=O)O)=C[C@@H]21 [11-COOH-THC]
Out: < 4.00
